Here, each record is paired with measured phosphorylation enrichment data.
# targetDesc: Fes (UniProt P07332)
# Sequence (P07332 whole entry, looked up): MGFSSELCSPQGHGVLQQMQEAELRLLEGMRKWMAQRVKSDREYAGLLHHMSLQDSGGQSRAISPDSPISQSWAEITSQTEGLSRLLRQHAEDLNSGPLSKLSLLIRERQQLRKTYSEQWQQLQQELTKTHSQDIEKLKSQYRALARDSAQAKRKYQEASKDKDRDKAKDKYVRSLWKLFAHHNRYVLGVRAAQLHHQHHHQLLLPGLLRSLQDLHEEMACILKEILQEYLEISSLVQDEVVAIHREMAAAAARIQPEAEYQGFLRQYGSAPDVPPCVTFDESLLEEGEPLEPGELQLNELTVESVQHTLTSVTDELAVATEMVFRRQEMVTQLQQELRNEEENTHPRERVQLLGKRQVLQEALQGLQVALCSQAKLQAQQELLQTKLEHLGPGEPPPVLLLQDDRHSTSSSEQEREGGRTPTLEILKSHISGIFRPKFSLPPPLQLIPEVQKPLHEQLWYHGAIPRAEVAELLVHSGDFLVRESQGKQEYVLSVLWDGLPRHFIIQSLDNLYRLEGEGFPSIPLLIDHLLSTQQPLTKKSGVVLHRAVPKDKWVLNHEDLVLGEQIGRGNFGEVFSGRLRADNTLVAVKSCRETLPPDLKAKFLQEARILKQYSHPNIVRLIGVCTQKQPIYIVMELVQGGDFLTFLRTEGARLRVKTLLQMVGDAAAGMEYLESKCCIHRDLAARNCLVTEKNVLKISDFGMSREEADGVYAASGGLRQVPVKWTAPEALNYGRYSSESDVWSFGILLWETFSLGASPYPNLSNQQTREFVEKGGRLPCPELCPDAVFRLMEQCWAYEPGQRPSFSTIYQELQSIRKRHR
# methodDescription: phosphorylation enrichment, bacterial display (enrichment ratio); higher = better substrate or ligand; peptides without Tyr show the background
Just the number, please, no unit after it.

seqText: SVVVPYEPPEV [TP53_Y220]
number: 1.16
--
seqText: VLNHAYENLTR [SYNE2_Y3255_D3253H]
number: 0.579

Q. Would you mind telling me what phosphorylation enrichment value was observed for ERDTVYSSSGV [NELL2_Y350_N347D] ?
A. 0.883

Q. What value of measured phosphorylation enrichment is listed for MENFIYESMQY [CYP19A1_Y361_R365Q] ?
A. 3.36

Q. Quick check: phosphorylation enrichment of HRGSLYLAIEY [TEK_Y899_Y897S] ?
A. 2.15

Q. Fill in the blank: the reported phosphorylation enrichment of FVSIVYNDFGE [TSC2_Y1650_S1653F] is ____.
A. 1.16

Q. // returns reported phosphorylation enrichment for input HMRLRYLAAEE [CEP120_Y884_Q879H]
A. 1.89

Q. Returns the measured phosphorylation enrichment for the input sequence. Input: GKTQQYDCKWY [BCR_Y751]
A. 1.05

###

Catalogue of phosphorylation enrichment readings, one per entry.
# targetDesc: Fes (UniProt P07332)
# methodDescription: phosphorylation enrichment, bacterial display (enrichment ratio); higher = better substrate or ligand; peptides without Tyr show the background

Guide cases for phosphorylation enrichment, answers given:
seqText: IKKLIYVFLVI [JAGN1_Y42_H44Y_YF]
observedProperty: phosphorylation enrichment
result: 1.1
//
seqText: LMLVLYGRIFR [HTR1A_Y215]
observedProperty: phosphorylation enrichment
result: 1.24
//
seqText: PAGSGYPAFLG [ATP6V1A_Y374_D371G_YF]
observedProperty: phosphorylation enrichment
result: 1.13
//
seqText: QGCSIYKDFFR [PLA2G2D_Y82_YF]
observedProperty: phosphorylation enrichment
result: 1.74
//
seqText: DLRTGYSVPFG [TGM1_Y370_Y365D_YF]
observedProperty: phosphorylation enrichment
result: 0.721

Q. So what does the record say about phosphorylation enrichment for RFLERYIYNRE [HLA-DPB1_Y57] ?
A. 0.949

Q. Can you share its phosphorylation enrichment? I mean this sequence: DLAAQYTTVGH [SGSH_Y240_R245H]
A. 0.947

Q. Reported phosphorylation enrichment, sequence VGNAAYQAGSL [STK36_Y1181_P1185S] : ____
A. 0.598

Q. Item VAVVDYVEPSP [TXNRD2_Y70] has what recorded phosphorylation enrichment?
A. 0.974

Q. Query: phosphorylation enrichment; subject: AEMKRYAESSS [RAI14_Y869]
A. 0.778

###

# targetDesc: Fes (UniProt P07332)
# methodDescription: phosphorylation enrichment, bacterial display (enrichment ratio); higher = better substrate or ligand; peptides without Tyr show the background
Reported phosphorylation enrichment values follow for various sequences

Reference set, count: 5
seqText: NNDLCYWVPEL [IARS1_Y434]
result: 1.22
--
seqText: SYNNKYGMVAQ [APOB_Y276_K273N]
result: 0.632
--
seqText: SARSAYQEAID [SFN_Y151_M155I]
result: 0.994
--
seqText: NKPTVYGVSPN [ABL1_Y226]
result: 0.623
--
seqText: SVESPYGSVTF [NDRG2_Y47_T45S]
result: 0.696

Consider the record given below.
Q. Field request: phosphorylation enrichment | item: IRTIDYRFTVC [IDS_Y497_W502C_YF]
A. 1.38

###

# targetDesc: SHP2-C SH2
# methodDescription: SH2 binding enrichment of the phosphorylated peptide, bacterial display (enrichment ratio); higher = better substrate or ligand; peptides without Tyr show the background
observedProperty: SH2 binding enrichment
Lab note: record just the number, no unit beside it.

Before answering, review these 8 worked examples.
seqText: NTGYYYDLYGG [PTPN11_Y63_D61Y]
targetDesc: SHP2-C SH2
SH2 binding enrichment: 1.56
--
seqText: VPHECYAKVFD [ALB_Y394_D389V]
targetDesc: SHP2-C SH2
SH2 binding enrichment: 1.55
--
seqText: TLNTNYHLPPS [MT-ATP8_Y33_M28T]
targetDesc: SHP2-C SH2
SH2 binding enrichment: 0.608
--
seqText: RSAGKDDVYLI [MECP2_Y120_Y120D]
targetDesc: SHP2-C SH2
SH2 binding enrichment: 0.478
--
seqText: CENNRYGMGTS [PDHA1_Y227]
targetDesc: SHP2-C SH2
SH2 binding enrichment: 0.6
--
seqText: TESALYGCTVV [KIAA1804_Y724_L729V]
targetDesc: SHP2-C SH2
SH2 binding enrichment: 0.657
--
seqText: AHLLQYNHQVK [LGALS3_Y221_R224Q]
targetDesc: SHP2-C SH2
SH2 binding enrichment: 0.401
--
seqText: ASENVYVNIAH [CTSC_Y150]
targetDesc: SHP2-C SH2
SH2 binding enrichment: 5.86

Q. Find the measured SH2 binding enrichment: item SSVAGYACLAF [MVD_Y131_A128V_YF] , target or system SHP2-C SH2.
A. 10.7

Q. What reported SH2 binding enrichment corresponds to FPDFVYKCIKA [DPYSL2_Y479_R481C] on SHP2-C SH2?
A. 0.727

Q. Could you share what SH2 binding enrichment was measured for SVVVPYEPSEV [TP53_Y220_P223S] , tested on SHP2-C SH2?
A. 0.645

Q. Notebook entry, SHP2-C SH2 assay: SH2 binding enrichment of WQQQSYLDSVI [CTNNB1_Y30_G34V] = ?
A. 0.509

Q. Which measured SH2 binding enrichment belongs to SDTGQYQCLVF [AXL_Y115] , tested on SHP2-C SH2?
A. 0.563

Q. Hi! What's the reported SH2 binding enrichment for EPSVDCCVVKI [CAD_Y735_Y735C] on SHP2-C SH2?
A. 1

Q. Lab request: please report SH2 binding enrichment under test system SHP2-C SH2 for TRSYKCLLLSM [NF1_Y491_Y491C];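 also: peptide library displayed on the E. coli surface as eCPX fusions, selected cells deep-sequenced, score is each peptide's frequency after selection divided by its frequency in the input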
A. 0.872

###

# Tested on: c-Src
# methodDescription: phosphorylation enrichment, bacterial display (enrichment ratio); higher = better substrate or ligand; peptides without Tyr show the background
The following sequences are listed with their measured phosphorylation enrichment values.

Take a look at these entries with their results.
seqText: TNLVPYTRIHF [TUBA1A_Y262_P263T]
phosphorylation enrichment: 0.441

seqText: FGSSSSGGAGG [RPA2_Y14_Y14S_YF]
phosphorylation enrichment: 0.458

seqText: VQNIVYRTASI [CYP39A1_Y102]
phosphorylation enrichment: 0.356

seqText: VHSGTYQVMVR [MYBPC3_Y1043_T1046M]
phosphorylation enrichment: 0.988

seqText: HRNGMYGLHQD [SGSH_Y89_Q85R]
phosphorylation enrichment: 0.389

seqText: TESALYGCTVV [KIAA1804_Y724_L729V]
phosphorylation enrichment: 4.43

Q. Report phosphorylation enrichment for SEDSEYYKAFE [CASQ2_Y178] please.
A. 0.698

###

# Test system: AncSZ
# methodDescription: phosphorylation enrichment, bacterial display (enrichment ratio); higher = better substrate or ligand; peptides without Tyr show the background
Each record gets a class by phosphorylation enrichment: label 0 = under 0.8, label 1 = from 0.8 up to 1, label 2 = 1 and over

Q. Looking at CTTIHKNYMCN [TP53_Y234_Y234K] , which class would you pick?
A. label 0

Q. Returns: class label. Input: RFLFFYSFLLK [PTEN_Y178_V175L_YF]
A. label 2

Q. Form: Item = VVTGPYEKPSL [KIR3DS1_Y221_L220P] ; Class = ?
A. label 2

Q. State the band of PSRKDYETFQS [CTNND2_Y1154_P1159S_YF]
A. label 1

Q. Form: Item = TNQVIYLNPPI [DYNC1H1_Y970] ; Class = ?
A. label 1

Q. Quick check: band for ETKKQYNSFTY [TMED3_Y85_D86N]
A. label 0

Q. Field: class (phosphorylation enrichment) — entry: ETKRPYTVILI [SBDS_Y128]
A. label 2

Q. GET /class?item= TTTQAYRVDER [PRKN_Y391]
A. label 0

Q. Record YDAHNYHPLPV [OAT_Y55_G51D] — which class?
A. label 1

Q. Note: place this sequence into its band. Item: KLLLKYSFHDA [RNF213_Y4141_V4146A]
A. label 2

Q. Which phosphorylation enrichment band matches TYQYKYPEGSS [TGM4_Y440_E437Q] ?
A. label 1

Q. Please indicate the class for HFGCVYRGTLL [MET_Y1093_H1094R] based on its phosphorylation enrichment.
A. label 2

Q. Which class is correct for the following sequence? PSPMPYASCQM [FOXL2_Y215]
A. label 2

Q. Categorize the following entry: LTERDYSFVTT [ACTG2_Y199_G198D]
A. label 2

Q. Could you tell me which band ARLDEYIAIAK [RCOR3_Y46_K42R] belongs to?
A. label 0

Reference for the values: the supplement of paper PMC10065799
